Tested on: MV-4-11 (human, Acute Myeloid Leukemia cell line) cells
Assay: Cell growth inhibition assay, GI50 of MV-4-11
Format: cell-based
Conditions: Homo sapiens, MV4-11, 72 h, MV-4-11 cells

{"columns": ["Molecule", "Result Units", "GI50"],
 "data": [
  ["C=CCN1CC(=O)N2[C@@H](Cc3ccc(O)cc3)C(=O)N(Cc3cccc4c(-c5ccc(C(=O)N6CCN(C)CC6)nc5)cn(C)c34)C[C@@H]2N1C(=O)NCc1ccccc1 [Compound D-91]", "nM", 1.3],
  ["C=CCN1CC(=O)N2[C@@H](Cc3ccc(O)cc3)C(=O)N(Cc3cccc4c(-c5ccc(NC(=O)Nc6cnccn6)cc5)cn(C)c34)C[C@@H]2N1C(=O)NCc1ccccc1 [Compound D-83]", "nM", 13.8],
  ["C=CCN1CC(=O)N2C(CN(Cc3cccc4c(C(=O)Nc5ccc(N6CCC7CCCN7C6)nc5)cn(C)c34)C(=O)[C@@H]2Cc2ccc(O)cc2)N1C(=O)NCc1ccccc1 (stereo partly shown) [Compound G-66]", "nM", 1.3],
  ["C=CCN1CC(=O)N2[C@@H](Cc3ccc(O)cc3)C(=O)N(Cc3cccc4c(-c5ccc(NC(=O)N6CCC(N7CCOCC7)CC6)cc5)cn(C)c34)C[C@@H]2N1C(=O)NCc1ccccc1 [Compound D-64]", "nM", 1.2],
  ["C=CCN1CC(=O)N2[C@@H](Cc3ccc(O)cc3)C(=O)N(Cc3cccc4c(-c5ccc(NC(=O)NC(C)C)nc5)cn(C)c34)C[C@@H]2N1C(=O)NCc1ccccc1 [Compound D-99]", "nM", 2.7],
  ["C=CCN1CC(=O)N2[C@@H](Cc3ccc(O)cc3)C(=O)N(Cc3cccc4c(-c5ccc(C(=O)NC6CCC(N)CC6)cc5)cn(C)c34)C[C@@H]2N1C(=O)NCc1ccccc1 (stereo partly drawn) [Compound D-30]", "nM", 1.5],
  ["C=CCN1CC(=O)N2C(Cc3ccc(O)cc3)C(=O)N(Cc3cccc4c(C(=O)Nc5ccc(NCCN6CCOCC6)nc5)cn(C)c34)CC2N1C(=O)NCc1ccccc1 (stereo not shown) [Compound G-28]", "nM", 5.6],
  ["C=CCN1CC(=O)N2[C@@H](Cc3ccc(O)cc3)C(=O)N(Cc3cccc4c(C(=O)Nc5ccc(N(C)Cc6cncn6C)nc5)cn(C)c34)C[C@@H]2N1C(=O)NCc1ccccc1 [Compound G-34]", "nM", 1.37],
  ["C=CCN1CC(=O)N2[C@@H](Cc3ccc(O)cc3)C(=O)N(Cc3cccc4c(C(=O)N5CCC(N6CCOCC6)CC5)cn(C)c34)C[C@@H]2N1C(=O)NCc1ccccc1 [Compound E-65]", "nM", 13],
  ["C=CCN1CC(=O)N2[C@@H](Cc3ccc(O)cc3)C(=O)N(Cc3cccc4c(C(=O)N(C)CCNC5CC5)cn(C)c34)C[C@@H]2N1C(=O)NCc1ccccc1 [Compound F-11]", "nM", 10.4]
]}
